- assayed system: HLA-B*57:01
- test protocol: IEDB peptide-MHC binding, purified MHC/competitive/fluorescence; filed as Kd, often an IC50 or EC50 that approximates it; bounds were set here for any values at or beyond the usual limits of such assays
- run conditions: source organism: Entamoeba dispar SAW760
pKd: −log10 of the molar value.
measured attribute: pKd

# get_value(readout='pKd', item= LMTHTWHAK )
≤ 4.70

====

- assayed system: HLA-B*48:01
- test protocol: IEDB peptide-MHC binding, purified MHC/direct/fluorescence; filed as Kd, often an IC50 or EC50 that approximates it; bounds were set here for any values at or beyond the usual limits of such assays
- run conditions: source organism: Burkholderia mallei
measured attribute: Kd

# get_value(readout='Kd', item= RRHGMAWRQ )
≥ 20 µM
